// data source = PubChem BioAssay

# MEASUREMENT DESCRIPTION: reduced mouse 2C T cell binding to pMHC/ICAM-1 vesicles – MLPCN validation set, flow cytometry, LFA-1/ICAM-1 modulator project, pilot screen (AID 2523);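 also: mean PE anti-B7-1 fluorescence of CD8+ cells relative to row control; 100% = QL9-loaded vesicles with DMSO vehicle in the same plate row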
# REPORTED CONDITIONS: 2C mouse CD8+ T cells, at 7 µM, active compounds read low
ENDPOINT LABEL: vesicle binding response (%)

>  <MOLECULE>
CC1(C)CC(c2csc(N)n2)CCO1 (stereo not drawn)

>  <DATA VALUE>
915

$$$$
>  <MOLECULE>
COc1ccc(/C=C\c2nc(=O)c3ccccc3o2)cc1

>  <DATA VALUE>
360

$$$$
>  <MOLECULE>
CC(CCCC(C)(C)O)NC(=O)c1ccc(OC2CCN(C(=O)C3CC3)CC2)cc1 (stereo not drawn)

>  <DATA VALUE>
200

$$$$
>  <MOLECULE>
O=C(O)c1ccc(OCCn2ccnc2)cc1

>  <DATA VALUE>
173

$$$$
>  <MOLECULE>
COc1cccc(CC(=O)NCC2COc3ccccc3O2)c1OC (stereo not drawn)

>  <DATA VALUE>
230

$$$$
>  <MOLECULE>
COc1cc2c(cc1OC)C1(CCCC1)CNC2c1cccc([N+](=O)[O-])c1 (stereo not drawn)

>  <DATA VALUE>
235

$$$$
>  <MOLECULE>
COc1ccc2nc(C)cc(Nc3ccccc3O)c2c1

>  <DATA VALUE>
120

$$$$
>  <MOLECULE>
CC(=O)OC1c2c(ccc3ccc(=O)oc23)OC(C)(C)C1OC(=O)CC(C)C (stereo not drawn)

>  <DATA VALUE>
1500

$$$$
>  <MOLECULE>
COc1c2c(nc3occc13)C(CC=C(C)C)(OC)C(O)CC2 (stereo not drawn)

>  <DATA VALUE>
144

$$$$
>  <MOLECULE>
O=C(NO)c1ccccc1O

>  <DATA VALUE>
158

$$$$
>  <MOLECULE>
C[C@H](NC(=O)C1(c2ccccc2)CCN(C(=O)[C@H]2CSCN2C(=O)OC(C)(C)C)CC1)C(=O)O

>  <DATA VALUE>
161

$$$$
>  <MOLECULE>
Cn1c([N+](=O)[O-])cnc1COC(N)=O

>  <DATA VALUE>
157

$$$$
>  <MOLECULE>
COc1ccc(N2C(=O)C3C(C2=O)C(C(=O)c2ccccc2)N2CCCC32)cc1 (stereo not drawn)

>  <DATA VALUE>
241

$$$$
>  <MOLECULE>
Cc1c2c(nc3c(C)cccc13)OC(C)C2 (stereo not drawn)

>  <DATA VALUE>
31.8

$$$$
>  <MOLECULE>
CCOCC(=O)Nc1nc2ccccc2s1

>  <DATA VALUE>
149

$$$$
>  <MOLECULE>
CC(=O)[C@@]1(O)CC[C@H]2[C@@H]3CCC4=CC(=O)CC[C@]4(C)[C@H]3[C@@H](O)C[C@@]21C

>  <DATA VALUE>
182

$$$$
>  <MOLECULE>
CCOC(=O)N1CCc2[nH]c3ccc(C)cc3c2C1

>  <DATA VALUE>
175

$$$$
>  <MOLECULE>
NC[C@H]1O[C@H](O[C@H]2[C@H](O)[C@@H](O[C@H]3O[C@H](CO)[C@@H](O)[C@H](N)[C@H]3O)[C@H](N)C[C@@H]2N)[C@H](N)C[C@@H]1O

>  <DATA VALUE>
273

$$$$
>  <MOLECULE>
CC(=O)SC1CC2=CC(=O)CCC2(C)C2CCC3(C)C(CCC34CCC(=O)O4)C12 (stereo not drawn)

>  <DATA VALUE>
247

$$$$
>  <MOLECULE>
Cc1ccc2nc(C)c3c(c2c1)OC(C(C)(Cl)Br)C3 (stereo not drawn)

>  <DATA VALUE>
278

$$$$
>  <MOLECULE>
c1ccc(-c2ccc(C(c3ccccc3)n3ccnc3)cc2)cc1 (stereo not drawn)

>  <DATA VALUE>
187

$$$$
>  <MOLECULE>
O=C(Cc1ccccc1)NCC(=O)OCC(=O)c1ccccc1Cl

>  <DATA VALUE>
296

$$$$
>  <MOLECULE>
CC1CCc2cc(F)cc3c(=O)c(C(=O)O)cn1c23 (stereo not drawn)

>  <DATA VALUE>
204

$$$$

====

# EXPERIMENTAL TARGET: AP-2 complex subunit beta (Homo sapiens) (UniProt P63010)
# Sequence (P63010 whole entry, looked up, one chain of several): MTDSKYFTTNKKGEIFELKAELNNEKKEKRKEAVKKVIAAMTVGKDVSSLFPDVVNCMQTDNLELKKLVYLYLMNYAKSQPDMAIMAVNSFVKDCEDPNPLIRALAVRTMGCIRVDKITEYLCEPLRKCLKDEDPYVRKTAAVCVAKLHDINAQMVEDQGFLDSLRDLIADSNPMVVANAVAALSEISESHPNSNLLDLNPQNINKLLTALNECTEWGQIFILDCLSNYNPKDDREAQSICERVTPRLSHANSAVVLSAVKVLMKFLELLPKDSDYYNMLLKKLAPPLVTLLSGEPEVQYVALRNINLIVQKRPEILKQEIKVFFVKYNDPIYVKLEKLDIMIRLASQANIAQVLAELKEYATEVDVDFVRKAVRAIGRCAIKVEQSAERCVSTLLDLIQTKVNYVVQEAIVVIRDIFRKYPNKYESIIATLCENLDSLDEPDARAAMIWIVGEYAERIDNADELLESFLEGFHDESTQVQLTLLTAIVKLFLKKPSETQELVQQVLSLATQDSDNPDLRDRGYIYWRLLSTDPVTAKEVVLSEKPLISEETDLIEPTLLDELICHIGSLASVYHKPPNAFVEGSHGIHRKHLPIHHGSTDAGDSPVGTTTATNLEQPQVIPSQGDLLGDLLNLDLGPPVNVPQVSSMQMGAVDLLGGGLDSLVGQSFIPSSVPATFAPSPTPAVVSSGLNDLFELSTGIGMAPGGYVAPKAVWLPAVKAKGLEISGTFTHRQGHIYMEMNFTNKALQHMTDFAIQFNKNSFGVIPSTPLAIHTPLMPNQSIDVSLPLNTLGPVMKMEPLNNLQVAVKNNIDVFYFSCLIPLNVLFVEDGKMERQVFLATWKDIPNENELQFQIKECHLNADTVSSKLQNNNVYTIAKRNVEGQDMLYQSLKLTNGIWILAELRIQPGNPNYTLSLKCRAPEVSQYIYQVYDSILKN
# MEASUREMENT DESCRIPTION: beta-arrestin/AP2 interaction blockers – biochemical, validation set, GST-AP2 beads, flow cytometry, pilot screen (AID 504541);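 also: AP2 carries R879A mutation and is captured from E. coli lysate; bead-bound FITC arrestin peptide fluorescence measuring arrestin peptide binding to AP2; 0% = DMSO wells and 100% = excess unlabeled arrestin peptide control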
# REPORTED CONDITIONS: FITC arrestin peptide, at 10 µM, AP2 beta2 appendage fragment, R879A mutant
Calls of active or inactive are those of the source.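 How the source made its calls: active means inhibition above 54%, about 3 SD of non-fluorescent compounds; inactive means the rest.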
Classes used: active, inactive

>  <MOLECULE>
COc1ccc(C(=O)Nc2cccc3cccnc23)cc1OC

>  <ASSIGNED LABEL>
inactive

$$$$
>  <MOLECULE>
Cc1cccc(-c2ncc(CN3CCN(CC(C)C)C(CCO)C3)cn2)c1 (stereo not given)

>  <ASSIGNED LABEL>
inactive

$$$$
>  <MOLECULE>
CC[C@H]1CN2CCc3cc(OC)c(OC)cc3[C@@H]2C[C@@H]1C[C@H]1NCCc2cc(OC)c(OC)cc21

>  <ASSIGNED LABEL>
inactive

$$$$
>  <MOLECULE>
CC(N=C(NC#N)Nc1ccncc1)C(C)(C)C (stereo not given)

>  <ASSIGNED LABEL>
inactive

$$$$
>  <MOLECULE>
O=C(O)c1ccccc1Nc1cccc(C(F)(F)F)c1

>  <ASSIGNED LABEL>
inactive

$$$$
>  <MOLECULE>
O=C(NC(Nc1ccccn1)C(Cl)(Cl)Cl)c1ccccc1 (stereo not given)

>  <ASSIGNED LABEL>
inactive

$$$$
>  <MOLECULE>
COc1ccc(-c2nnc(-c3cc4c(ccc5ccccc54)oc3=O)o2)cc1

>  <ASSIGNED LABEL>
inactive

$$$$
>  <MOLECULE>
CCN(CC)c1ccc(C2=NNC(=O)CC2C)cc1[N+](=O)[O-] (stereo not given)

>  <ASSIGNED LABEL>
inactive

$$$$
>  <MOLECULE>
COc1ccc(/C=C/C(=O)c2cc3cccc(OC)c3oc2=O)cc1

>  <ASSIGNED LABEL>
inactive

$$$$
>  <MOLECULE>
Cn1c([N+](=O)[O-])cnc1COC(N)=O

>  <ASSIGNED LABEL>
inactive

$$$$
>  <MOLECULE>
COc1ccc(C2C3=C(OC(C)=O)c4ccccc4C3=Nc3c2c(=O)n(C)c(=O)n3C)cc1 (stereo not given)

>  <ASSIGNED LABEL>
inactive

$$$$
>  <MOLECULE>
CCOC(=O)c1ccc(N2C(=O)C(CC(=O)NC)N(CCc3ccc(OC)c(OC)c3)C2=S)cc1 (stereo not given)

>  <ASSIGNED LABEL>
inactive

$$$$
>  <MOLECULE>
CN=C(NC#N)NCCSCc1nc[nH]c1C

>  <ASSIGNED LABEL>
inactive

$$$$
>  <MOLECULE>
O=C1[C@@H]2[C@H](Cc3ccc(O)cc3)N[C@]3(C(=O)Nc4ccccc43)[C@@H]2C(=O)N1c1ccc(F)cc1

>  <ASSIGNED LABEL>
inactive

$$$$
>  <MOLECULE>
C#C[C@]1(O)CC[C@H]2[C@@H]3CCc4cc(O)ccc4[C@H]3CC[C@@]21C

>  <ASSIGNED LABEL>
inactive

$$$$
>  <MOLECULE>
CO[C@@]1(NC(=O)Cc2cccs2)C(=O)N2C(C(=O)O)=C(COC(N)=O)CS[C@@H]21

>  <ASSIGNED LABEL>
inactive

$$$$
>  <MOLECULE>
CCn1cc(C(=O)O)c(=O)c2ccc(C)nc21

>  <ASSIGNED LABEL>
inactive

$$$$
>  <MOLECULE>
C[C@]12CC[C@@H]3c4ccc(O)cc4CC[C@H]3[C@@H]1CC[C@@H]2OC(=O)CCC(=O)O

>  <ASSIGNED LABEL>
inactive

$$$$
>  <MOLECULE>
CC12CN3CC(C)(CN(C1)C3c1ccc(Br)cc1O)C2 (stereo not given)

>  <ASSIGNED LABEL>
inactive

$$$$
>  <MOLECULE>
COc1ccc2[nH]c(=O)c3c(c2c1)OC(C)(C)C=C3

>  <ASSIGNED LABEL>
inactive

$$$$
>  <MOLECULE>
COc1ccc(/C=C/C(=O)Nc2ccccc2C(=O)O)cc1OC

>  <ASSIGNED LABEL>
inactive

$$$$
>  <MOLECULE>
COc1ccc(OC)c(C(=O)c2coc3ccc(O)cc23)c1

>  <ASSIGNED LABEL>
inactive

$$$$
>  <MOLECULE>
CC(=O)[C@H]1CC[C@H]2[C@@H]3CCC4=CC(=O)CC[C@]4(C)[C@H]3[C@H](O)C[C@]12C

>  <ASSIGNED LABEL>
inactive

$$$$
>  <MOLECULE>
CC(=O)O[C@]1(C(C)=O)CC[C@H]2[C@@H]3C[C@H](C)C4=CC(=O)CC[C@]4(C)[C@H]3CC[C@@]21C

>  <ASSIGNED LABEL>
inactive

$$$$
>  <MOLECULE>
CCc1cc(C(N)=S)ccn1

>  <ASSIGNED LABEL>
inactive

$$$$
>  <MOLECULE>
CC(=O)Oc1ccc(C(c2ccc(OC(C)=O)cc2)c2ccccn2)cc1

>  <ASSIGNED LABEL>
inactive

$$$$
>  <MOLECULE>
COc1c2ccoc2nc2c(OC)cccc12

>  <ASSIGNED LABEL>
inactive

$$$$
>  <MOLECULE>
NC(N)=N/N=C/c1cccc(Cl)c1Cl

>  <ASSIGNED LABEL>
inactive

$$$$
>  <MOLECULE>
CC(C)CN1CCN(Cc2ccc(C#CC(C)(C)O)cc2)CC1CCO (stereo not given)

>  <ASSIGNED LABEL>
inactive

$$$$
>  <MOLECULE>
C=CCC1(O)C(=O)N2C(=C1C(=O)N1CCOCC1)c1ccccc1CC2(C)C (stereo not given)

>  <ASSIGNED LABEL>
inactive

$$$$
>  <MOLECULE>
N/C(=N\OC(=O)c1cccc(Br)c1)c1ccncc1

>  <ASSIGNED LABEL>
inactive

$$$$
>  <MOLECULE>
NS(=O)(=O)c1cc2c(cc1Cl)NC(C(Cl)Cl)NS2(=O)=O (stereo not given)

>  <ASSIGNED LABEL>
inactive

$$$$
>  <MOLECULE>
CC1(C)C(=O)OC(/C=C\c2ccccc2)C(C)(C)C1=O (stereo not given)

>  <ASSIGNED LABEL>
inactive

$$$$
>  <MOLECULE>
O=C(c1ccc(Cl)cc1)C1CCCN(Cc2ccc(Oc3ncccn3)cc2)C1 (stereo not given)

>  <ASSIGNED LABEL>
inactive

$$$$
>  <MOLECULE>
O=C(/C=C/c1ccco1)Nc1ccccc1C(=O)O

>  <ASSIGNED LABEL>
inactive

$$$$
>  <MOLECULE>
Fc1ccc(-n2cc(CNCCc3ccccn3)c(-c3ccccc3Cl)n2)cc1

>  <ASSIGNED LABEL>
inactive

$$$$
>  <MOLECULE>
CC1CCN(CCOCCOc2ccccc2Br)CC1

>  <ASSIGNED LABEL>
inactive

$$$$
>  <MOLECULE>
COc1ccc(CNC(=O)N[C@H](C(=O)O)C(C)C)cc1OC

>  <ASSIGNED LABEL>
inactive

$$$$
>  <MOLECULE>
NCCc1ccc(O)c(O)c1

>  <ASSIGNED LABEL>
inactive

$$$$
>  <MOLECULE>
CC(=O)Oc1c2occc2cc2ccc(=O)oc12

>  <ASSIGNED LABEL>
inactive

$$$$
>  <MOLECULE>
COc1ccc(C(CC(=O)N2CCOCC2)C(C)C)cc1 (stereo not given)

>  <ASSIGNED LABEL>
inactive

$$$$
>  <MOLECULE>
COc1cc(C(=O)Nc2cccc(-c3nnc(-c4ccco4)o3)c2)ccc1OC(C)=O

>  <ASSIGNED LABEL>
active

$$$$
>  <MOLECULE>
CC(=O)NC(NC(=S)N1CCCCCC1)C(Cl)(Cl)Cl (stereo not given)

>  <ASSIGNED LABEL>
inactive

$$$$
>  <MOLECULE>
COC(=O)C1=CN(Cc2cccs2)C=C(C(=O)OC)C1c1cccc(Cl)c1

>  <ASSIGNED LABEL>
inactive

$$$$
>  <MOLECULE>
CCCc1cc(C(N)=S)ccn1

>  <ASSIGNED LABEL>
inactive

$$$$
